Each recorded value in this set is attributed to paper PMC9482650.

system: GORASP1, Q9BQQ3
Sequence (Q9BQQ3 1-208): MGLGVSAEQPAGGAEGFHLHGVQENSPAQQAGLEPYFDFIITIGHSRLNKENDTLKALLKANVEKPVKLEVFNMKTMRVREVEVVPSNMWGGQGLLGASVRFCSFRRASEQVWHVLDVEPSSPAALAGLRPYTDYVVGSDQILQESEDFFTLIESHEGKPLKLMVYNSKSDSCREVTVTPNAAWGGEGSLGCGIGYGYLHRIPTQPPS
measurement_description: holdup assay
Set-up: key: below the threshold = too weak to quantify, mostly under pKd 3.1 to 4
condition_set: plain residues with an end cap or a label only (N-terminal biotin on a linker: ado-ado)
endpoint_label: pKd

PAPSSGKDYV [CLDN1, O95832]; below the threshold
RRRESYSTTV [EVI5, O60447]; 4.7
FNSYSLTGYV [CLDN2, P57739]; 4.14
EALLQMESVA [CAVIN3, Q969G5]; below the threshold
VRNLPESEEL [MYOZ3, Q8TDC0]; below the threshold
DTTVPESEDL [MYOZ2, Q9NPC6]; below the threshold

# batch: return pKd for each of the 3 binders below
1. RRLPGKETMA [GRIK2, Q13002]
2. DDENIRTSDV [PLEKHA2, Q9HB19]
3. ETQVTAETVI [TMEM225B, P0DP42]

Result:
1. below the threshold
2. below the threshold
3. 3.67

Ask: Value lookup for pKd; key = PEYLGLDVPV [ERBB2, P04626]
Result: below the threshold
